# Test system: tetrabenazine-induced sedation and depression in mice
# measurement.protocol: Antagonism of tetrabenazine-induced depression in mice (prevention of ptosis and exploratory loss), orally at 1 hour post-drug
# Format: in vivo, mice (Carworth CF1 S female)
# test.parameters: Mus musculus, oral, tetrabenazine 32 mg/kg intraperitoneally 30 minutes after drug, read-out: ED50 For Prevention of Ptosis
measurement.label: log10 of ED50 (log10 of the value in mg/kg)

| molecule | log10 of ED50 |
| --- | --- |
| COc1ccc2c3c([nH]c2c1)CC(NC(C)=O)CC3 (stereo not shown) [Compound 2i] | -0.10 |
| CC(=O)NC1CC[C@@H]2c3cc(C)ccc3N[C@@H]2C1 (stereo partly shown) [Compound 1e] | 1.20 |
| Cl.NC1CCc2c([nH]c3ccccc23)C1 (stereo not shown) [Compound 3a] | 0.60 |
| CCCCOc1ccc2c(c1)N[C@@H]1CC(NC(C)=O)CC[C@H]21 (stereo partly shown) [Compound 1k] | -0.66 |
| NC1CCC2c3ccccc3NC2C1 (stereo not shown) [Compound 1u] | -0.24 |
| CC(=O)NC1CCc2c(n(C)c3ccccc23)C1 (stereo not shown) [Compound 3L] | 0.95 |
| COC(=O)NC1CCC2c3ccccc3NC2C1 (stereo not shown) [Compound 1t] | 0.72 |
| CC(=O)NC1CCC2c3ccc(OCc4ccccc4)cc3NC2C1 (stereo not shown) [Compound 1n] | 0.81 |
| CN(C)CCC=C1c2ccccc2CCc2ccccc21 [amitriptyline, reference compound] | 0.08 |

====

# System: tetrabenazine-induced sedation and depression in mice
# measurement.protocol: Antagonism of tetrabenazine-induced depression in mice (prevention of ptosis and exploratory loss), orally at 1 hour post-drug
# Format: in vivo, mice (Carworth CF1 S female)
# test.parameters: Mus musculus, oral, tetrabenazine 32 mg/kg intraperitoneally 30 minutes after drug, read-out: ED50 For Prevention of Ptosis
Where a name gives a salt, the structure may show the parent alone.
ED50 for assorted compounds
measurement.label: ED50 (mg/kg)

| compound | measure.unit | sign.qualifier | measured.result |
| --- | --- | --- | --- |
| CC(=O)NC1CCc2c([nH]c3cc(OCc4ccccc4)ccc23)C1 (centres unmarked) | mg/kg | = | 6.5 |
| CCCCC(=O)NC1CCC2c3ccccc3NC2C1 (centres unmarked) | mg/kg | = | 6.5 |
| CCOc1ccc2c(c1)N[C@@H]1CC(NC(C)=O)CC[C@H]21 (some centres unmarked) | mg/kg | = | 8.9 |
| CC(=O)NC1CC[C@@H]2c3cc(F)ccc3N[C@@H]2C1 (some centres unmarked) | mg/kg | = | 2.7 |
| CCCCC(=O)NC1CCc2c([nH]c3ccccc23)C1 (centres unmarked) | mg/kg | > | 81 |
| O=CNC1CCC2c3ccccc3NC2C1 (centres unmarked) | mg/kg | = | 21 |
| COC(=O)NC1CCc2c([nH]c3ccccc23)C1 (centres unmarked) | mg/kg | > | 81 |
| CN(C)C1CCc2c([nH]c3ccccc23)C1 (centres unmarked) | mg/kg | = | 11.4 |
| CC(=O)NC1CCc2c([nH]c3cc(Cl)cc(Cl)c23)C1 (centres unmarked) | mg/kg | = | 3.3 |
| COc1ccc2c(c1)NC1CC(NC(C)=O)CCC21 (centres unmarked) | mg/kg | = | 2.2 |
| CCN1c2ccccc2[C@H]2CCC(NC(C)=O)C[C@H]21 (some centres unmarked) | mg/kg | = | 4.7 |
| O=CNC1CCc2c([nH]c3ccccc23)C1 (centres unmarked) | mg/kg | = | 84 |
| CCCCCOc1ccc2c3c([nH]c2c1)CC(NC(C)=O)CC3 (centres unmarked) | mg/kg | = | 2.7 |
| CCCOc1ccc2c(c1)N[C@@H]1CC(NC(C)=O)CC[C@H]21 (some centres unmarked) | mg/kg | = | 0.79 |
| CC(=O)NC1CCc2c([nH]c3c(F)cccc23)C1 (centres unmarked) | mg/kg | = | 14 |
| CCOC(=O)N(C)C1CCc2c([nH]c3ccccc23)C1 (centres unmarked) | mg/kg | = | 7.8 |
| CNC1CCc2c([nH]c3ccccc23)C1.Cl (centres unmarked) | mg/kg | = | 12 |
| CC(=O)NC1CC[C@@H]2c3cc(Br)ccc3N[C@@H]2C1 (some centres unmarked) | mg/kg | = | 2.1 |
| CC(=O)NC1CCc2c([nH]c3ccc(C)cc23)C1 (centres unmarked) | mg/kg | = | 3 |
| COc1ccc2[nH]c3c(c2c1)CCC(NC(C)=O)C3 (centres unmarked) | mg/kg | = | 5.8 |
| CC(=O)NC1CC[C@@H]2c3ccccc3N[C@@H]2C1 (some centres unmarked) [Compound 1a, hydrochloride] | mg/kg | = | 0.7 |
| CCC(=O)NC1CCC2c3ccccc3NC2C1 (centres unmarked) | mg/kg | = | 1.7 |
| CNC1CCC2c3ccccc3NC2C1 (centres unmarked) | mg/kg | = | 2.4 |

====

# Tested on: tetrabenazine-induced sedation and depression in mice
# measurement.protocol: Antagonism of tetrabenazine-induced depression in mice (prevention of ptosis and exploratory loss), orally at 1 hour post-drug
# Format: in vivo, mice (Carworth CF1 S female)
# test.parameters: Mus musculus, oral, tetrabenazine 32 mg/kg intraperitoneally 30 minutes after drug, read-out: ED50 For Prevention of Ptosis
ED50 for assorted compounds
measurement.label: ED50 (mg/kg)

| compound | measure.unit | measured.result |
| --- | --- | --- |
| CCOc1ccc2c3c([nH]c2c1)CC(NC(C)=O)CC3 (stereo not drawn) | mg/kg | 2 |
| CC(=O)NC1CCc2c([nH]c3ccc(Cl)cc23)C1 (stereo not drawn) | mg/kg | 2.4 |
| CC(=O)NC1CCc2c([nH]c3ccc(Br)cc23)C1 (stereo not drawn) | mg/kg | 10 |
| CC(=O)NC1CC[C@@H]2c3ccc(O)cc3N[C@@H]2C1 (stereo partly drawn) | mg/kg | 8.1 |
| CCNC1CCc2c([nH]c3ccccc23)C1.Cl (stereo not drawn) | mg/kg | 27 |
| CC(=O)NC1CCc2c([nH]c3ccc(F)cc23)C1 (stereo not drawn) | mg/kg | 0.7 |
| CCCCCOc1ccc2c(c1)N[C@@H]1CC(NC(C)=O)CC[C@H]21 (stereo partly drawn) | mg/kg | 2 |
| CC(=O)NC1CC[C@@H]2c3cc(Cl)ccc3N[C@@H]2C1 (stereo partly drawn) | mg/kg | 3.3 |
| CCCCOc1ccc2c3c([nH]c2c1)CC(NC(C)=O)CC3 (stereo not drawn) | mg/kg | 0.51 |
